Every entry's value here was drawn from paper PMC5540273.

Answer each item with its documented %Inh.
- System: ERK2;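 note: KINOMEscan kinase panel screen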
- Construct: gene MAPK1
- run_conditions: concentration: 1 μM,replicates: in singlicate; n = 1
Answers are plain numbers, in %.

Recorded results for 6 compounds are shown here.
compound	system	attribute_measured	quantity_unit	endpoint_result
Cn1ccc2ncnc(Oc3ccc(NC(=O)Nc4cnn(C(C)(C)C)c4)c(Cl)c3)c21	ERK2	%Inh	%	4
C[C@@H](Oc1cc(-n2cnc3cc(-c4ccncc4)ccc32)sc1C(N)=O)c1ccccc1Cl	ERK2	%Inh	%	0
CN(c1ccccc1CNc1nc(Nc2ccc3c(c2)CC(=O)N3)ncc1C(F)(F)F)S(C)(=O)=O	ERK2	%Inh	%	82
Cc1ccc(Nc2ccnc(Nc3ccc4c(c3)CS(=O)(=O)C4)n2)cc1O.Cl	ERK2	%Inh	%	0
COC(=O)c1cccc(NC(=O)NC2CCN(c3ccnc(Nc4cc(OC)c(OC)c(OC)c4)n3)C2)c1 (centres unmarked)	ERK2	%Inh	%	0
Cc1ccn2nc(-c3ccc(F)cc3)c(-c3ccncc3)c2c1.Cl	ERK2	%Inh	%	0

Record %Inh per entry; entries follow.
1. Cc1ccc(CC(=O)N2CCc3cc(-c4cn(C)c5ncnc(N)c45)ccc32)cc1
2. CC(=O)Nc1nc2cnc(Nc3cc(NC(=O)c4cccc(CC(C)(C)C#N)c4)ccc3C)nc2s1
3. c1ccc(Oc2ccc(Nc3ccnc4ccc(-c5ccccn5)cc34)cc2)cc1

Result:
1. 6
2. 15
3. 83
